- Measured target: L-lactate dehydrogenase (Plasmodium falciparum (isolate CDC / Honduras))
- Assay notes: PfLDH activity inhibition – cell lysate, 3D7 strain, counter-screen for P. falciparum growth inhibition project (AID 2304);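 further: 0% = vehicle and 100% = reference inhibitor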
- Measurement parameters: P. falciparum 3D7 crude extract, LDH APAD/NBT absorbance; at 2 µM; hits give high values
inhibition values, listed per item
Please reply with the bare figure in % and do not write the unit itself.

Compound	inhibition (%)
O=C(/C=C/c1ccc(Cl)c(Cl)c1)NC1CCC(CN2CCC(c3nc4ncccc4[nH]3)CC2)CC1 (stereo not drawn)	-1
CS(=O)(=O)NCCCNCc1cccc(-c2cccc(-c3nc4ccc(C(F)(F)F)cc4[nH]3)c2)c1	5

Query: Return inhibition for the following compound: `O=C(Nc1ccc(-c2nc3ccccc3[nH]2)cc1)c1ccc(N2CCOCC2)c([N+](=O)[O-])c1`
Response: -8

Query: Return inhibition for the following compound: `O=C(Nc1ccc(-c2ccccc2)s1)N[C@H]1CCN(Cc2ccc(OCCCN3CCCCC3)cc2)C1`
Response: -6

Query: Return inhibition for the following compound: `CCN(CC)CCc1ccc2c(=O)cc(CCc3cccc(F)c3F)n(CC(=O)N(C)Cc3ccc(-c4ccc(C(F)(F)F)cc4)cc3)c2c1`
Response: 1

Query: Return inhibition for the following compound: COc1ccc2nccc([C@@H](O)CN3CCC(NC(=O)C(c4ccsc4)N4CCN(c5ccccc5)CC4)CC3)c2c1 (stereo partly drawn)
Response: -8

Query: Return inhibition for the following compound: `Cc1ccoc1C(=O)Nc1cccc(-c2cccc(-c3nc4ccc(C(F)(F)F)cc4[nH]3)c2)c1`
Response: -6

Query: Return inhibition for the following compound: `Cc1ccc(C)c(CC(=O)N2CCC(n3c(C)nc4ccc(F)cc43)CC2)c1`
Response: 1

###

- Assay notes: antimalarial activity against Dd2 strain (AID 2302);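 further: 0% = DMSO untreated growth and 100% = chloroquine plus artemisinin killed control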
- Measurement parameters: P. falciparum Dd2 in RBCs, LDH growth readout, 72 h; at 2 µM; hits give high values
Classes are defined on growth inhibition with ranges lo: < 2%; mid: ≥ 2% and < 80%; hi: ≥ 80%

Query: Given `CSc1ccccc1NC(=S)NC1CCN(CCCCCNC(=O)/C=C/c2ccc(Cl)c(Cl)c2)CC1` , name the class its growth inhibition places it in.
Response: mid

Query: Given `COc1ccc(-c2nc(NC(=O)Cc3ccc(OC)c(OC)c3)sc2C)cc1` , name the class its growth inhibition places it in.
Response: mid

###

inhibition values, listed per item
- Assay notes: HepG2 cytotoxicity, primary screen, cytotoxicity control for P. falciparum antimalarial project, cell-based, ATP luminescence (AID 2303);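 further: 0% = DMSO wells and 100% = digitonin-killed cells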
- Measurement parameters: HepG2 viability, 24-48 h, at 10 µM, hits give high values
Please reply with the bare figure in % and do not write the unit itself.

Cc1cc(C)cc(NC(=S)NCCCCN2CCN(c3cccc(Cl)c3)CC2)c1 11

Query: Return inhibition for the following compound: `CCCCC(=O)Nc1nonc1-c1ccc(OCC)c(OCC)c1`
Response: 9

Query: Return inhibition for the following compound: `O=C(Nc1nc(-c2cc(F)ccc2F)cs1)c1cncc(Br)c1`
Response: 16

Query: Return inhibition for the following compound: `CCCCCN1CCC(NC(=O)c2ccc(C(=O)Nc3ccc(C(C)C)cc3)cc2)CC1`
Response: 41

Query: Return inhibition for the following compound: `O=C(NCCCCCCNCc1ccc(-c2ccccc2)cc1)Nc1ccc(Cl)c(Cl)c1`
Response: 14

Query: Return inhibition for the following compound: `OCC1CCN(Cc2cccc(-c3cccc(-c4nc5ccc(C(F)(F)F)cc5[nH]4)c3)c2)CC1`
Response: 24

Query: Return inhibition for the following compound: `Nc1ncc(-c2ccc3ncccc3c2)c(N)n1`
Response: 55

Query: Return inhibition for the following compound: `CCCCCCc1ncc(-c2cc3cc(O)c(-c4ccccc4)cc3oc2=O)s1`
Response: 4

Query: Return inhibition for the following compound: `Cc1ccc(NC(=O)NC2CCN(c3ccnc4cc(Cl)ccc34)CC2)cc1`
Response: 4

Query: Return inhibition for the following compound: `FC(F)(F)c1ccc2nc(-c3ccc(-c4cccc(CNCc5ccccc5)c4)cc3)[nH]c2c1`
Response: -2
